Tested on: rabbit reticulocyte lysate system
Experiment: In vitro translation efficiency of capped luciferase mRNA with 31-base poly(A) tail, method II transcripts
Type: biochemical
Conditions: experiment 5
Measured Translation efficiency in comparison to m^7GpppG-LUC-(A)31 mRNA, Experiment No. 5 of individual entries
endpoint name: Translation efficiency in comparison to m^7GpppG-LUC-(A)31 mRNA, Experiment No. 5

compound	study target	experimental value
Cn1c[n+]([C@@H]2O[C@H](COP(=O)(O)OP(=O)(O)OP(=O)(O)OC[C@H]3O[C@@H](n4cnc5c(=O)[nH]c(N)nc54)[C@H](O)[C@@H]3O)[C@@H](O)[C@H]2O)c2nc(N)[nH]c(=O)c21 [m^7GpppG, m^7G(5′)ppp(5′)G, reference compound]	rabbit reticulocyte lysate system	1.00
[BH3-]P(=O)(OC[C@H]1O[C@@H](n2cnc3c(=O)[nH]c(N)nc32)[C@H](O)[C@@H]1O)OP(=O)(O)OP(=O)(O)OC[C@H]1O[C@@H](n2c[n+](C)c3c(=O)[nH]c(N)nc32)[C@H](OC)[C@@H]1O (single isomer, unassigned) [m2^7,2′-OGpppBH3G (D1), m2^7,2′-OGpppBH3G]	rabbit reticulocyte lysate system	3.28
CO[C@@H]1[C@H](O)[C@@H](COP(=O)([O-])OP(O)(=S)OP(=O)(O)OC[C@H]2O[C@@H](n3cnc4c(=O)[nH]c(N)nc43)[C@H](O)[C@@H]2O)O[C@H]1[n+]1cn(C)c2c(=O)[nH]c(N)nc21 (single isomer, unassigned) [m2^7,2′-OGppSpG (D1), m2^7,2′-OGppSpG, reference compound]	rabbit reticulocyte lysate system	2.83

---

Tested on: rabbit reticulocyte lysate system
Assay: In vitro translation efficiency of capped luciferase mRNA with 31-base poly(A) tail, method II transcripts
Assay type: biochemical
Conditions: experiment 2
Reported values of Translation efficiency in comparison to m^7GpppG-LUC-(A)31 mRNA, Experiment No. 2 for individual entries
endpoint name: Translation efficiency in comparison to m^7GpppG-LUC-(A)31 mRNA, Experiment No. 2

compound	experimental value
CO[C@@H]1[C@H](O)[C@@H](COP(=O)(O)OP(O)(=[Se])OP(=O)(O)OC[C@H]2O[C@@H](n3cnc4c(=O)[nH]c(N)nc43)[C@H](O)[C@@H]2O)O[C@H]1n1c[n+](C)c2c(=O)[nH]c(N)nc21 (single isomer, unassigned) [m2^7,2′-OGppSepG (D1), m2^7,2′-OGppSepG]	2.09
CO[C@@H]1[C@H](O)[C@@H](COP(=O)(O)OP(O)(=[Se])OP(=O)(O)OC[C@H]2O[C@@H](n3cnc4c(=O)[nH]c(N)nc43)[C@H](O)[C@@H]2O)O[C@H]1n1c[n+](C)c2c(=O)[nH]c(N)nc21 (single isomer, unassigned) [m2^7,2′-OGppSepG (D2), m2^7,2′-OGppSepG]	2.31
Cn1c[n+]([C@@H]2O[C@H](COP(=O)(O)OP(=O)(O)OP(=O)(O)OC[C@H]3O[C@@H](n4cnc5c(=O)[nH]c(N)nc54)[C@H](O)[C@@H]3O)[C@@H](O)[C@H]2O)c2nc(N)[nH]c(=O)c21 [m^7GpppG, m^7G(5′)ppp(5′)G, reference compound]	1.00
Nc1nc2c(ncn2[C@@H]2O[C@H](COP(=O)(O)OP(=O)(O)OP(=O)(O)OC[C@H]3O[C@@H](n4cnc5c(N)ncnc54)[C@H](O)[C@@H]3O)[C@@H](O)[C@H]2O)c(=O)[nH]1 [ApppG, reference compound]	0.16
CO[C@H]1[C@@H](O)[C@H]([n+]2cn(C)c3c(=O)[nH]c(N)nc32)O[C@@H]1COP(=O)([O-])OP(=O)(O)OP(=O)(O)OC[C@H]1O[C@@H](n2cnc3c(=O)[nH]c(N)nc32)[C@H](O)[C@@H]1O [m2^7,3′-OGpppG, 7-methyl(3′-O-methyl)GpppG, reference compound]	1.66

---

Tested on: rabbit reticulocyte lysate system
Assay: In vitro translation efficiency of capped luciferase mRNA, method I transcripts
Format: biochemical
Conditions: mean of experiments
Form field: Translation efficiency in comparison with m^7GpppG-LUC mRNA, Mean (one value per entry).
endpoint name: Translation efficiency in comparison with m^7GpppG-LUC mRNA, Mean

compound	experimental value
Cn1c[n+]([C@@H]2O[C@H](COP(=O)(O)OP(=O)(O)OP(=O)(O)OC[C@H]3O[C@@H](n4cnc5c(=O)[nH]c(N)nc54)[C@H](O)[C@@H]3O)[C@@H](O)[C@H]2O)c2nc(N)[nH]c(=O)c21 [m^7GpppG, m^7G(5′)ppp(5′)G, reference compound]	1.00
CO[C@H]1[C@@H](O)[C@H]([n+]2cn(C)c3c(=O)[nH]c(N)nc32)O[C@@H]1COP(=O)([O-])OP(=O)(O)OP(=O)(O)OC[C@H]1O[C@@H](n2cnc3c(=O)[nH]c(N)nc32)[C@H](O)[C@@H]1O [m2^7,3′-OGpppG, 7-methyl(3′-O-methyl)GpppG, reference compound]	2.73
[BH3-]P(=O)(OP(=O)(O)OCC1OC(n2cnc3c(=O)[nH]c(N)nc32)C(O)C1O)OP(=O)(O)OCC1OC(n2c[n+](C)c3c(=O)[nH]c(N)nc32)C(O)C1O (mixture of isomers)	1.41
Nc1nc2c(ncn2[C@@H]2O[C@H](COP(=O)(O)OP(=O)(O)OP(=O)(O)OC[C@H]3O[C@@H](n4cnc5c(N)ncnc54)[C@H](O)[C@@H]3O)[C@@H](O)[C@H]2O)c(=O)[nH]1 [ApppG, reference compound]	0.48

---

Molecular target: eIF4E (Mus musculus)
Sequence (P63073 28-217 limits assumed): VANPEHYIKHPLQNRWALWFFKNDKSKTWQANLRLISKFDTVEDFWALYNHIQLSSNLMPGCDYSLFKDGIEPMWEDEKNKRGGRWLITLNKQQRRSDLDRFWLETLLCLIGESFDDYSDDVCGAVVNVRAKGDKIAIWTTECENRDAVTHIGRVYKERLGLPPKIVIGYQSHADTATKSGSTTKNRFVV
Experiment: Binding affinity of cap analogs to eIF4E by fluorescence titration
Details: Table 3; equilibrium association constant
Let's look at some compounds and their measured Cap analog-eIF4E affinity (KAS).

compound	study target	Cap analog-eIF4E affinity (KAS) (μM^−1)
CO[C@@H]1[C@H](O)[C@@H](COP(=O)(O)OP(O)(=[Se])OP(=O)(O)OC[C@H]2O[C@@H](n3cnc4c(=O)[nH]c(N)nc43)[C@H](O)[C@@H]2O)O[C@H]1n1c[n+](C)c2c(=O)[nH]c(N)nc21 (single isomer, unassigned) [m2^7,2′-OGppSepG (D1), m2^7,2′-OGppSepG]	eIF4E (Mus musculus)	38.5
CO[C@@H]1[C@H](O)[C@@H](COP(=O)(O)OP(=O)([O-])OP(=O)(O)OC[C@H]2O[C@@H](n3cnc4c(=O)[nH]c(N)nc43)[C@H](O)[C@@H]2O)O[C@H]1n1c[n+](C)c2c(O)nc(N)nc21 [m2^7,2′-OGpppG, reference compound]	eIF4E (Mus musculus)	10.8
CO[C@@H]1[C@H](O)[C@@H](COP(=O)(O)OP(O)(=[Se])OP(=O)(O)OC[C@H]2O[C@@H](n3cnc4c(=O)[nH]c(N)nc43)[C@H](O)[C@@H]2O)O[C@H]1n1c[n+](C)c2c(=O)[nH]c(N)nc21 (single isomer, unassigned) [m2^7,2′-OGppSepG (D2), m2^7,2′-OGppSepG]	eIF4E (Mus musculus)	19.0

---

Test system: rabbit reticulocyte lysate system
Test: In vitro translation efficiency of capped luciferase mRNA with 31-base poly(A) tail, method II transcripts
Format: biochemical
Settings: mean of experiments
Quick list: Translation efficiency in comparison to m^7GpppG-LUC-(A)31 mRNA, Mean per entry.
endpoint name: Translation efficiency in comparison to m^7GpppG-LUC-(A)31 mRNA, Mean

molecule	study target	experimental value
CO[C@@H]1[C@H](O)[C@@H](COP(=O)(O)OP(O)(=[Se])OP(=O)(O)OC[C@H]2O[C@@H](n3cnc4c(=O)[nH]c(N)nc43)[C@H](O)[C@@H]2O)O[C@H]1n1c[n+](C)c2c(=O)[nH]c(N)nc21 (single isomer, unassigned) [m2^7,2′-OGppSepG (D1), m2^7,2′-OGppSepG]	rabbit reticulocyte lysate system	2.24
Cn1c[n+]([C@@H]2O[C@H](COP(=O)(O)OP(=O)(O)OP(=O)(O)OC[C@H]3O[C@@H](n4cnc5c(=O)[nH]c(N)nc54)[C@H](O)[C@@H]3O)[C@@H](O)[C@H]2O)c2nc(N)[nH]c(=O)c21 [m^7GpppG, m^7G(5′)ppp(5′)G, reference compound]	rabbit reticulocyte lysate system	1.00
CO[C@@H]1[C@H](O)[C@@H](COP(=O)(O)OP(O)(=[Se])OP(=O)(O)OC[C@H]2O[C@@H](n3cnc4c(=O)[nH]c(N)nc43)[C@H](O)[C@@H]2O)O[C@H]1n1c[n+](C)c2c(=O)[nH]c(N)nc21 (single isomer, unassigned) [m2^7,2′-OGppSepG (D2), m2^7,2′-OGppSepG]	rabbit reticulocyte lysate system	2.31
[BH3-]P(=O)(OP(=O)(O)OCC1OC(n2cnc3c(=O)[nH]c(N)nc32)C(O)C1O)OP(=O)(O)OCC1OC(n2c[n+](C)c3c(=O)[nH]c(N)nc32)C(OC)C1O (single isomer, unassigned) [m2^7,2′-OGppBH3pG (D2), m2^7,2′-OGppBH3pG]	rabbit reticulocyte lysate system	3.35
CO[C@@H]1[C@H](O)[C@@H](COP(=O)([O-])OP(O)(=S)OP(=O)(O)OC[C@H]2O[C@@H](n3cnc4c(=O)[nH]c(N)nc43)[C@H](O)[C@@H]2O)O[C@H]1[n+]1cn(C)c2c(=O)[nH]c(N)nc21 (single isomer, unassigned) [m2^7,2′-OGppSpG (D1), m2^7,2′-OGppSpG, reference compound]	rabbit reticulocyte lysate system	2.88
CO[C@@H]1[C@H](O)[C@@H](COP(=O)([O-])OP(O)(=S)OP(=O)(O)OC[C@H]2O[C@@H](n3cnc4c(=O)[nH]c(N)nc43)[C@H](O)[C@@H]2O)O[C@H]1[n+]1cn(C)c2c(=O)[nH]c(N)nc21 (single isomer, unassigned) [m2^7,2′-OGppSpG (D2), m2^7,2′-OGppSpG, reference compound]	rabbit reticulocyte lysate system	3.11
[BH3-]P(=O)(OC[C@H]1O[C@@H](n2cnc3c(=O)[nH]c(N)nc32)[C@H](O)[C@@H]1O)OP(=O)(O)OP(=O)(O)OC[C@H]1O[C@@H](n2c[n+](C)c3c(=O)[nH]c(N)nc32)[C@H](OC)[C@@H]1O (single isomer, unassigned) [m2^7,2′-OGpppBH3G (D1), m2^7,2′-OGpppBH3G]	rabbit reticulocyte lysate system	2.83
[BH3-]P(=O)(OP(=O)(O)OCC1OC(n2cnc3c(=O)[nH]c(N)nc32)C(O)C1O)OP(=O)(O)OCC1OC(n2c[n+](C)c3c(=O)[nH]c(N)nc32)C(OC)C1O (single isomer, unassigned) [m2^7,2′-OGppBH3pG (D1), m2^7,2′-OGppBH3pG]	rabbit reticulocyte lysate system	2.66
[BH3-]P(=O)(OC[C@H]1O[C@@H](n2cnc3c(=O)[nH]c(N)nc32)[C@H](O)[C@@H]1O)OP(=O)(O)OP(=O)(O)OC[C@H]1O[C@@H](n2c[n+](C)c3c(=O)[nH]c(N)nc32)[C@H](OC)[C@@H]1O (single isomer, unassigned) [m2^7,2′-OGpppBH3G (D2), m2^7,2′-OGpppBH3G]	rabbit reticulocyte lysate system	1.84
[BH3-]P(=O)(OP(=O)(O)OCC1OC(n2cnc3c(=O)[nH]c(N)nc32)C(O)C1O)OP(=O)(O)OCC1OC(n2c[n+](C)c3c(=O)[nH]c(N)nc32)C(O)C1O (single isomer, unassigned) [m^7GppBH3pG (D1), m^7GppBH3pG]	rabbit reticulocyte lysate system	1.91
Nc1nc2c(ncn2[C@@H]2O[C@H](COP(=O)(O)OP(=O)(O)OP(=O)(O)OC[C@H]3O[C@@H](n4cnc5c(N)ncnc54)[C@H](O)[C@@H]3O)[C@@H](O)[C@H]2O)c(=O)[nH]1 [ApppG, reference compound]	rabbit reticulocyte lysate system	0.19
CO[C@H]1[C@@H](O)[C@H]([n+]2cn(C)c3c(=O)[nH]c(N)nc32)O[C@@H]1COP(=O)([O-])OP(=O)(O)OP(=O)(O)OC[C@H]1O[C@@H](n2cnc3c(=O)[nH]c(N)nc32)[C@H](O)[C@@H]1O [m2^7,3′-OGpppG, 7-methyl(3′-O-methyl)GpppG, reference compound]	rabbit reticulocyte lysate system	1.82
